Values from ChEMBL document CHEMBL1201862

system: HCT-116; assay: NCI tumour cell line growth inhibition, 48 h
Activity calls are given as the source filed them. Cut-off read from the data, not from the text of the source: active = GI50 up to about 1.1 µM and inactive = higher.
Classes used: TRUE for active, FALSE for inactive

compound	assigned_label
Cc1cc(C)cc(Nc2nnc3n2S(=O)(=O)c2cc(C)c(Cl)cc2S3)c1	FALSE
O=C(O)c1ccc(N/C(=C(/C(Cl)=C(Cl)Cl)[N+](=O)[O-])n2nnc3ccccc32)cc1	FALSE
Cc1ccc(S(=O)(=O)N/N=C/c2oc(-c3cccc([N+](=O)[O-])c3)c(-c3cccc([N+](=O)[O-])c3)c2[N+](=O)[O-])cc1	FALSE
CCOP(=O)(OCC)C(C(=O)OC)C(=O)C(=O)Nc1ccc(Cl)cc1Cl (centres undefined)	FALSE
CC1(C)CC(=O)C(CCC(=O)/C=C/c2ccccc2)C(=O)C1	FALSE
O=C(/C=C/C=C/c1ccccc1)c1ccc2c(c1)CCCC2	FALSE
Cc1ccccc1C(CCCO)C(=O)O (centres undefined)	FALSE
CC[n+]1c(/C=C/c2ccc(N(CCCl)CCCl)cc2)ccc2cc(I)ccc21	TRUE
Nc1nc(Cl)cc(NCC2(CO)CCCC2)n1	FALSE
O=C1Oc2cc3c(c4cccc1c24)OCN(c1ccc(Cl)cc1)C3	FALSE
C1=C(c2ccccc2)SC=C(c2ccccc2)S1	FALSE
O=C1NC2OCC(O)C(O)C2O1 (centres undefined)	FALSE
O=C(NC1CCN(Cc2ccccc2)CC1)c1ccc(I)cc1	FALSE
COC12OCCN(C)C1=CC(=O)C1=NNC(C)C12 (centres undefined)	FALSE
CC(CN(C)C)C(=O)c1ccccc1C(=O)O (centres undefined)	FALSE
Cc1ccccc1/N=N/c1ccc(/N=N/c2c(O)ccc3ccccc23)c(C)c1 [SCARLET RED]	FALSE
C#CCOC(=O)C(N)CCSC (centres undefined)	FALSE
C=C1C[C@@H](O)[C@@H](Br)C(C)(C)[C@]12CCC(C)(Br)C(Cl)C2 (some centres undefined)	FALSE
COc1ccc(O)c2c1C(=O)CCCC2=O	FALSE
C(=C\N1CCCCC1)/c1nnnn1-c1ccccc1	FALSE
CSc1cc(-c2ccccn2)nc(-c2ccccn2)c1	TRUE
O=c1c2cc(I)ccc2nc(SCc2nncs2)n1Cc1ccccc1	FALSE
NC(CCCNCc1ccccc1)C(=O)O (centres undefined)	FALSE
CCOC(=O)c1cc2c(OC)cc(OC)cc2oc1=O	FALSE
